These entries and their values trace back to patent US20100158926A1.

- target: human ErbB2, full length, on cells (B300.19/hErbB2 clone #44; MCF7; BT474; SKBR3) (human)
Listed below: EC50 (ng/ml) n2, inhibition of Heregulin-induced ErbB2 phosphorylation in MCF7 cells values for each entry.
Don't forget the unit after the value.

Known EC50 (ng/ml) n2, inhibition of Heregulin-induced ErbB2 phosphorylation in MCF7 cells results, listed for orientation:
binder="monoclonal antibody 1.18.1 (antibody, V domains shown) VH: QVQLVESGGGVVQPGRSLRLSCAASGFTFSSYGMHWVRQAPGKGLEWVAVIWYDRSNKYYADSVKGRFTISRDNSKNTLYLQMDSLRAEDTAVYYCAGGRSRGAFDYWGQGTLVTVSS VL: DIQMTQSPSSLSASVGDRVTITCRASQGIRNYLAWFQQKPGKAPKSLIYAASSLQSGVPSTFSGSGSGTHFTLTISSLQPEDFASYFCQQYEIYPLTFGGGTKVEIK" resultvalue="10.8 ng/mL"
binder="monoclonal antibody 1.39 (antibody, V domains shown) VH: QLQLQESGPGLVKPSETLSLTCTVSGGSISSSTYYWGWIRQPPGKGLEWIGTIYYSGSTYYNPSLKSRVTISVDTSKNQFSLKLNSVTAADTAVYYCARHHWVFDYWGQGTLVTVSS VL: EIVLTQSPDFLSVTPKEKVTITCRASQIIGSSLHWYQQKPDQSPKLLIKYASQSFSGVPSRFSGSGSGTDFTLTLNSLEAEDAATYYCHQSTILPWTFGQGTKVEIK" resultvalue="26.3 ng/mL"

Entry monoclonal antibody 1.14.1 (antibody, V domains shown) VH: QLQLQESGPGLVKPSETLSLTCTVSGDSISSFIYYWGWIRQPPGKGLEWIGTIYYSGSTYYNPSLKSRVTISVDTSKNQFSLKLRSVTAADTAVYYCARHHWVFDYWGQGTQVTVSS VL: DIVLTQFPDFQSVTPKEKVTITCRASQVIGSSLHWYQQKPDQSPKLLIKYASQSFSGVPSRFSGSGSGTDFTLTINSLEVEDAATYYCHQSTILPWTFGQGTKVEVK — recorded EC50 (ng/ml) n2, inhibition of Heregulin-induced ErbB2 phosphorylation in MCF7 cells = 22.9 ng/mL
